# assay-explanation: physchem
# condition-summary: pH 7.4
measurement-name: solubility at 5 min (µg/mL)
Answers are plain numbers, in µg/mL.

IN: Given CC[C@H](C)[C@H](NC(=O)[C@H](N)Cc1ccc(O)cc1)C(=O)N[C@H]1CSSC[C@@H](C(=O)N(C)[C@H](C(N)=O)[C@@H](C)CC)NC(=O)[C@H](CCCNC(=N)N)NC(=O)[C@H](Cc2c[nH]cn2)NC(=O)[C@H](C)NC(=O)CN(C)C(=O)[C@H](Cc2c[nH]c3ccccc23)NC(=O)[C@H](CC(=O)O)NC(=O)[C@H](CCC(N)=O)NC(=O)[C@H](Cc2cn(C)c3ccccc23)NC(=O)[C@H](C(C)C)NC1=O [peptide 14] , respond with its solubility at 5 min.
OUT: 800

* * *

Kindly state ka: association rate for each of the entries shown.
# assay-system: C3b (Homo sapiens)
# Construct: Biotinylated C3b was captured site-specifically on a streptavidin chip
# assay-explanation: SPR kinetic analysis of binding to immobilized C3b (Biacore, single cycle kinetics)
# condition-summary: Table 1, N-terminal analogs
Bridge positions count the residues as written; N and C are the ends. Square brackets hold non-standard residues; d marks the D form. Peptide text beside a SMILES is read from it. Trp(1-Me) = Cn1cc(C[C@H](N)C(=O)O)c2ccccc21; NMeI = CC[C@H](C)[C@H](NC)C(=O)O; Sar = CNCC(=O)O

CC[C@H](C)[C@H](NC)C(=O)N[C@H](C(=O)N[C@H]1CSSC[C@@H](C(=O)N(C)[C@H](C(N)=O)[C@@H](C)CC)NC(=O)[C@H](CCCNC(=N)N)NC(=O)[C@H](Cc2c[nH]cn2)NC(=O)[C@H](C)NC(=O)CN(C)C(=O)[C@H](Cc2c[nH]c3ccccc23)NC(=O)[C@H](CC(=O)O)NC(=O)[C@H](CCC(N)=O)NC(=O)[C@H](Cc2cn(C)c3ccccc23)NC(=O)[C@H](C(C)C)NC1=O)[C@@H](C)CC; 1.6 ± 0.2 10^6/Ms

Turning now to a further record.
IN: Given CC[C@H](C)[C@@H](C(N)=O)N(C)C(=O)[C@@H]1CSSC[C@H](NC(=O)[C@H](Cc2c[nH]c3ccccc23)NC(C)=O)C(=O)N[C@@H](C(C)C)C(=O)N[C@@H](Cc2cn(C)c3ccccc23)C(=O)N[C@@H](CCC(N)=O)C(=O)N[C@@H](CC(=O)O)C(=O)N[C@@H](Cc2c[nH]c3ccccc23)C(=O)N(C)CC(=O)N[C@@H](C)C(=O)N[C@@H](Cc2c[nH]cn2)C(=O)N[C@@H](CCCNC(=N)N)C(=O)N1 [peptide 19] (Ac-WCV[Trp(1-Me)]QDW[Sar]AHRC[NMeI]-NH2; disulfide 2-12) , respond with its ka: association rate.
OUT: 3.8 ± 0.3 10^6/Ms

* * *

# assay-system: C3b (Homo sapiens, UniProt P01024)
# Construct: Biotinylated C3b was captured site-specifically on a streptavidin chip
# Sequence (P01024 23-667 limits assumed): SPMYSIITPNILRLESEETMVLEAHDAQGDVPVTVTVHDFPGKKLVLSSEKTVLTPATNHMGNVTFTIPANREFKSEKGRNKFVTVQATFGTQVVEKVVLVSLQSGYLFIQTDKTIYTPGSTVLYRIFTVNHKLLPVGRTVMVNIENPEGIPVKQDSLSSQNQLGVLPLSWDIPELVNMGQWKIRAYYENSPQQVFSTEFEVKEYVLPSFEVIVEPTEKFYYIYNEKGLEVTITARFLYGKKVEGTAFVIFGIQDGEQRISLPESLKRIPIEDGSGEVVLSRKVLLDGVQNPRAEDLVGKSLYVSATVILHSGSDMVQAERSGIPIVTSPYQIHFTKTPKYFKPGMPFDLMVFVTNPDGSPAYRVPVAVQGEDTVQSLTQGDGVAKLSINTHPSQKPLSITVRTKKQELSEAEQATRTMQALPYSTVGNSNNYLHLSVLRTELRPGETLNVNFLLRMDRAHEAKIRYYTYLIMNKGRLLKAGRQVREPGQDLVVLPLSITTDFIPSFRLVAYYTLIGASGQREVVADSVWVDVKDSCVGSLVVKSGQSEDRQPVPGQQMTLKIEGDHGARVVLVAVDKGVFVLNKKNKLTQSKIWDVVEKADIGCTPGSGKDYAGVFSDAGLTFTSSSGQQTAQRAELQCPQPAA
# Sequence (P01024 749-1663 partner limits assumed): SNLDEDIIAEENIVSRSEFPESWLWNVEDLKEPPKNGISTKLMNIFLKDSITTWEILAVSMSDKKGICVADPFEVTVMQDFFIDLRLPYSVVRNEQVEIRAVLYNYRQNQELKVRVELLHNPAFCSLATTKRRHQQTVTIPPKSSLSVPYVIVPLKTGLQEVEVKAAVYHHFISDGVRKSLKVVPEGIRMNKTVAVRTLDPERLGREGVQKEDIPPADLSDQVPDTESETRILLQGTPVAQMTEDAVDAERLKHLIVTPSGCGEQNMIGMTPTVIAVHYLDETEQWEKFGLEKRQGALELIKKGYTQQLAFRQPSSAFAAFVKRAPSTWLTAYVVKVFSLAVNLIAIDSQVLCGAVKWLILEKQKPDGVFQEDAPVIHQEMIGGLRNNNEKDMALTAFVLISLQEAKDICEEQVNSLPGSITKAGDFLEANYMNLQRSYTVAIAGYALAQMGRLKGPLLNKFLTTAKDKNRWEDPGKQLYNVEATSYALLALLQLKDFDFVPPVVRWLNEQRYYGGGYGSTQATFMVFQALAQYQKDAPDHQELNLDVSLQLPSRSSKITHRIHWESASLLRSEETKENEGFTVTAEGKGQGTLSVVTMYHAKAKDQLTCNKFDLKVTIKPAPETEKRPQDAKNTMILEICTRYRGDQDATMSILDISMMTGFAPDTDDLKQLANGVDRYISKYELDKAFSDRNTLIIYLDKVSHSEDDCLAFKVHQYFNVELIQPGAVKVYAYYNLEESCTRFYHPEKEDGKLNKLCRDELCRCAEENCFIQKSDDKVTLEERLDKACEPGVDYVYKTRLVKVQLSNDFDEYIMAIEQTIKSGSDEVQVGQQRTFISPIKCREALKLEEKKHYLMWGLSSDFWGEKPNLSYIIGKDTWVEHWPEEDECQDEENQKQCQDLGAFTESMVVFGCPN
# assay-explanation: SPR kinetic analysis of binding to immobilized C3b (Biacore, single cycle kinetics)
# condition-summary: Table 1, N-terminal analogs; read-out: kd: dissociation rate
Bridge positions count the residues as written; N and C are the ends. Square brackets hold non-standard residues; d marks the D form. Peptide text beside a SMILES is read from it. Trp(1-Me) = Cn1cc(C[C@H](N)C(=O)O)c2ccccc21; NMeI = CC[C@H](C)[C@H](NC)C(=O)O; Sar = CNCC(=O)O
Kindly state koff for each of the entries shown.
Answers are plain numbers, in s⁻¹.

CC[C@H](C)[C@@H](C(N)=O)N(C)C(=O)[C@@H]1CSSC[C@H](NC(=O)[C@H](Cc2c[nH]c3ccccc23)NC(C)=O)C(=O)N[C@@H](C(C)C)C(=O)N[C@@H](Cc2cn(C)c3ccccc23)C(=O)N[C@@H](CCC(N)=O)C(=O)N[C@@H](CC(=O)O)C(=O)N[C@@H](Cc2c[nH]c3ccccc23)C(=O)N(C)CC(=O)N[C@@H](C)C(=O)N[C@@H](Cc2c[nH]cn2)C(=O)N[C@@H](CCCNC(=N)N)C(=O)N1 [peptide 19] (Ac-WCV[Trp(1-Me)]QDW[Sar]AHRC[NMeI]-NH2; disulfide 2-12); 0.0017

IN: Report koff from C3b (Homo sapiens, UniProt P01024) testing of CC[C@H](C)[C@H](NC(=O)[C@H](N)CC1CCCCC1)C(=O)N[C@H]1CSSC[C@@H](C(=O)N(C)[C@H](C(N)=O)[C@@H](C)CC)NC(=O)[C@H](CCCNC(=N)N)NC(=O)[C@H](Cc2c[nH]cn2)NC(=O)[C@H](C)NC(=O)CN(C)C(=O)[C@H](Cc2c[nH]c3ccccc23)NC(=O)[C@H](CC(=O)O)NC(=O)[C@H](CCC(N)=O)NC(=O)[C@H](Cc2cn(C)c3ccccc23)NC(=O)[C@H](C(C)C)NC1=O
OUT: 0.0027

* * *

# assay-explanation: Solubility in WFI and DPBS; UPLC C18 retention time as hydrophobicity
# condition-summary: PBS
Bridge positions count the residues as written; N and C are the ends. Square brackets hold non-standard residues; d marks the D form. Peptide text beside a SMILES is read from it. Trp(1-Me) = Cn1cc(C[C@H](N)C(=O)O)c2ccccc21; NMeI = CC[C@H](C)[C@H](NC)C(=O)O; Sar = CNCC(=O)O
measurement-name: solubility

IN: Given CC[C@H](C)[C@@H](C(N)=O)N(C)C(=O)[C@@H]1CSSC[C@H](NC(=O)[C@H](Cc2c[nH]c3ccccc23)NC(C)=O)C(=O)N[C@@H](C(C)C)C(=O)N[C@@H](Cc2cn(C)c3ccccc23)C(=O)N[C@@H](CCC(N)=O)C(=O)N[C@@H](CC(=O)O)C(=O)N[C@@H](Cc2c[nH]c3ccccc23)C(=O)N(C)CC(=O)N[C@@H](C)C(=O)N[C@@H](Cc2c[nH]cn2)C(=O)N[C@@H](CCCNC(=N)N)C(=O)N1 [peptide 19] (Ac-WCV[Trp(1-Me)]QDW[Sar]AHRC[NMeI]-NH2; disulfide 2-12) , respond with its solubility.
OUT: < 100 µM

* * *

# assay-explanation: Stability in human plasma at 37° C. (SPE, UPLC-MS)
# condition-summary: fresh human plasma
measurement-name: remaining at 120 h, 20 μM

IN: Given CC[C@H](C)[C@H](NC(=O)CNC)C(=O)N[C@H]1CSSC[C@@H](C(=O)N(C)[C@H](C(N)=O)[C@@H](C)CC)NC(=O)[C@H](CCCNC(=N)N)NC(=O)[C@H](Cc2c[nH]cn2)NC(=O)[C@H](C)NC(=O)CN(C)C(=O)[C@H](Cc2c[nH]c3ccccc23)NC(=O)[C@H](CC(=O)O)NC(=O)[C@H](CCC(N)=O)NC(=O)[C@H](Cc2cn(C)c3ccccc23)NC(=O)[C@H](C(C)C)NC1=O [peptide 3] , respond with its remaining at 120 h, 20 μM.
OUT: > 55%

* * *

Kindly state ka: association rate for each of the entries shown.
# assay-system: C3b (Homo sapiens)
# Construct: Biotinylated C3b was captured site-specifically on a streptavidin chip
# assay-explanation: SPR kinetic analysis of binding to immobilized C3b (Biacore, single cycle kinetics)
# condition-summary: Table 2, Cp40-based analogs
Bridge positions count the residues as written; N and C are the ends. Square brackets hold non-standard residues; d marks the D form. Peptide text beside a SMILES is read from it. Trp(1-Me) = Cn1cc(C[C@H](N)C(=O)O)c2ccccc21; NMeI = CC[C@H](C)[C@H](NC)C(=O)O; Orn = NCCC[C@H](N)C(=O)O; Sar = CNCC(=O)O

CC[C@H](C)[C@H](NC(=O)[C@H](N)Cc1ccc(O)cc1)C(=O)N[C@H]1CSSC[C@@H](C(=O)N(C)[C@H](C(N)=O)[C@@H](C)CC)NC(=O)[C@H](CCCN)NC(=O)[C@H](Cc2c[nH]cn2)NC(=O)[C@H](C)NC(=O)CN(C)C(=O)[C@H](Cc2c[nH]c3ccccc23)NC(=O)[C@H](CC(=O)O)NC(=O)[C@H](CCC(N)=O)NC(=O)[C@H](Cc2cn(C)c3ccccc23)NC(=O)[C@H](C(C)C)NC1=O [Cp40 (11Orn)] (H-[dY]ICV[Trp(1-Me)]QDW[Sar]AH[Orn]C[NMeI]-NH2; disulfide 3-13); 2.5 ± 0.1 10^6/Ms
CC[C@H](C)[C@H](NC(=O)[C@H](N)Cc1ccc(O)cc1)C(=O)N[C@H]1CSSC[C@@H](C(=O)N(C)[C@H](C(N)=O)[C@@H](C)CC)NC(=O)[C@H](CCCNC(=N)N)NC(=O)[C@H](Cc2c[nH]cn2)NC(=O)[C@H](C)NC(=O)CN(C)C(=O)[C@H](Cc2c[nH]c3ccccc23)NC(=O)[C@H](CC(=O)O)NC(=O)[C@H](CCC(N)=O)NC(=O)[C@H](Cc2cn(C)c3ccccc23)NC(=O)[C@H](C(C)C)NC1=O [peptide 14]; 2.8 ± 0.6 10^6/Ms
CC[C@H](C)[C@H](NC(=O)[C@H](N)Cc1ccc(O)cc1)C(=O)N[C@H]1CSSC[C@@H](C(=O)N(C)[C@H](C(N)=O)[C@@H](C)CC)NC(=O)[C@H](CCCNC(=N)N)NC(=O)[C@H](Cc2c[nH]cn2)NC(=O)[C@H](C)NC(=O)CN(C)C(=O)[C@H](Cc2c[nH]c3ccccc23)NC(=O)[C@H](CC(N)=O)NC(=O)[C@H](CCC(N)=O)NC(=O)[C@H](Cc2cn(C)c3ccccc23)NC(=O)[C@H](C(C)C)NC1=O [Cp40 (6Asn)] (H-[dY]ICV[Trp(1-Me)]QNW[Sar]AHRC[NMeI]-NH2; disulfide 3-13); 0.9 ± 0.1 10^6/Ms

IN: Report ka: association rate from C3b (Homo sapiens) testing of CC[C@H](C)[C@H](NC(=O)[C@H](N)Cc1ccc(O)cc1)C(=O)N[C@H]1CSSC[C@@H](C(=O)N(C)[C@H](C(N)=O)[C@@H](C)CC)NC(=O)[C@H](CCCN)NC(=O)[C@H](Cc2c[nH]cn2)NC(=O)[C@H](C)NC(=O)CN(C)C(=O)[C@H](Cc2c[nH]c3ccccc23)NC(=O)[C@H](CC(N)=O)NC(=O)[C@H](CCC(N)=O)NC(=O)[C@H](Cc2cn(C)c3ccccc23)NC(=O)[C@H](C(C)C)NC1=O [Cp40 (11Orn 6Asn)] (H-[dY]ICV[Trp(1-Me)]QNW[Sar]AH[Orn]C[NMeI]-NH2; disulfide 3-13)
OUT: 2.0 ± 0.4 10^6/Ms

Where do these numbers come from? They come from patent US20210032291A1.
